The reported measurements were obtained from patent US8394828B2.

- tested.on: human VR1 (Homo sapiens)
- Construct: expressed in transfected cells; host or cells: HEK293
- Sequence (Q8NER1 whole entry): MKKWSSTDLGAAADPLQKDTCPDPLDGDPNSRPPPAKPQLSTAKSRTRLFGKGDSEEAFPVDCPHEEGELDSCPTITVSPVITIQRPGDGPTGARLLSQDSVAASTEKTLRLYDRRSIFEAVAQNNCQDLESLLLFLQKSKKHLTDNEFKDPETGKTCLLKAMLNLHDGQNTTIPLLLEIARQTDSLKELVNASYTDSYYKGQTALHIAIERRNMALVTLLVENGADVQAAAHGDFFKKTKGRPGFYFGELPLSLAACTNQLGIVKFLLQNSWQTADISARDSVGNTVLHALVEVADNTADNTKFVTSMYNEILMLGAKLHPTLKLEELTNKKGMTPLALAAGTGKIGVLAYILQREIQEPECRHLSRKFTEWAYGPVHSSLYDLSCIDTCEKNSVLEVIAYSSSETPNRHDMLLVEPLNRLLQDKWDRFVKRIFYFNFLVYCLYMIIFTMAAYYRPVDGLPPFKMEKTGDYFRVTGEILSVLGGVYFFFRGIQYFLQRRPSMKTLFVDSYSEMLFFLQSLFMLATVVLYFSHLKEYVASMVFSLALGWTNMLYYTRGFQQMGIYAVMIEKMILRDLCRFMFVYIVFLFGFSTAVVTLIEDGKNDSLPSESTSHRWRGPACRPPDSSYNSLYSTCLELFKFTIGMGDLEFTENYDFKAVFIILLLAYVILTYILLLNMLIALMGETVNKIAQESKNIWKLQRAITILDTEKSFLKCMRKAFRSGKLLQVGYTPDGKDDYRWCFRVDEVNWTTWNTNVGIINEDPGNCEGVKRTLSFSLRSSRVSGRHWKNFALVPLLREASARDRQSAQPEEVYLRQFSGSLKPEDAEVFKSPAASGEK
- test.name: Human VR1 functional assay (intracellular Ca++, FLIPR, capsaicin challenge)
- Type: cell-based
- conditions: FLIPR functional assay IC50 hVR1 60 min, 60 min
The label rule met is reserved for IC50 strictly under 300 nM; rule not met covers values equal to or above it.

Example entries begin here.
I wonder whether CCCCCc1ccc(CCC(=O)Nc2cnc3ccccc3c2)cc1 has IC50 below 300 nM. Can you tell?
rule not met

I wonder whether CCCCCN(C)c1ccc(CCC(=O)Nc2cnc3ccccc3c2)cc1 has IC50 below 300 nM. Can you tell?
rule met

I wonder whether O=C(Nc1cnc2ccccc2c1)c1ccc2c(c1)CCN2C1CCCCC1 has IC50 below 300 nM. Can you tell?
rule met

I wonder whether CCCCN(C)c1ccc(C(=O)Nc2cnc3ccccc3c2)cc1 has IC50 below 300 nM. Can you tell?
rule met

I wonder whether CN(CC1CCCCC1)c1ccc(CCC(=O)Nc2cnc3ccccc3c2)cc1 has IC50 below 300 nM. Can you tell?
rule not met

I wonder whether CCCN(CCC)c1ccc(C(=O)Nc2cnc3ccccc3c2)cc1 has IC50 below 300 nM. Can you tell?
rule met

I wonder whether O=C(CCc1ccc(C23CC4CCCC(CC(C4)C2)C3)cc1)Nc1cnc2ccccc2c1 has IC50 below 300 nM. Can you tell?
rule not met

I wonder whether CCCCCNc1ccc(C(=O)Nc2cnc3ccccc3c2)cc1C has IC50 below 300 nM. Can you tell?
rule met

I wonder whether O=C(Nc1cnc2ccccc2c1)c1ccc(N2CCCCCCC2)nc1 has IC50 below 300 nM. Can you tell?
rule met

I wonder whether CCCCCc1ccc(C=CC(=O)Nc2cnc3ccccc3c2)cc1 has IC50 below 300 nM. Can you tell?
rule not met

New cases:
I wonder whether CCCCCCN(CCCCCC)c1ccc(C(=O)Nc2cnc3ccccc3c2)cc1 [4-Dihexylamino-N-quinolin-3-yl-benzamide] has IC50 below 300 nM. Can you tell?
rule not met

I wonder whether CCCCCC=CCCCN(C)c1ccc(C(=O)Nc2cnc3ccccc3c2)cc1 has IC50 below 300 nM. Can you tell?
rule met

I wonder whether O=C(Nc1cnc2ccccc2c1)c1ccc(N2CCC(Cc3ccccc3)CC2)cc1 has IC50 below 300 nM. Can you tell?
rule not met

I wonder whether CCCCCCCNc1ccccc1C(=O)Nc1cnc2ccccc2c1 [2-Heptylamino-N-quinolin-3-yl-benzamide] has IC50 below 300 nM. Can you tell?
rule not met

I wonder whether O=C(Nc1cnc2ccccc2c1)c1ccc(N(Cc2ccccc2)Cc2ccccc2)cc1 has IC50 below 300 nM. Can you tell?
rule not met

I wonder whether CN(CCc1ccccc1)c1ccc(C(=O)Nc2cnc3ccccc3c2)cn1 has IC50 below 300 nM. Can you tell?
rule not met

I wonder whether CCCCCN1CCc2cc(C(=O)Nc3cnc4ccccc4c3)ccc21 has IC50 below 300 nM. Can you tell?
rule met

I wonder whether O=C(Nc1cnc2ccccc2c1)c1ccc(N2CC3CCCC(C3)C2)nc1 has IC50 below 300 nM. Can you tell?
rule met

I wonder whether O=C(Nc1cnc2ccccc2c1)c1ccc(N2CC[C@@H]3CCCC[C@@H]3C2)cc1 (relative stereo) has IC50 below 300 nM. Can you tell?
rule met

I wonder whether O=C(Nc1cnc2ccccc2c1)c1ccc(N2CCCCC2)nc1 has IC50 below 300 nM. Can you tell?
rule met
